System: Hs-578T
Assay: NCI tumour cell line growth inhibition, 48 h
Active and inactive are the calls of the source. Rule as the data show it: active = GI50 up to about 1.1 µM and inactive = higher.
Property: GI50; scope: individual molecules

Study these solved cases before continuing.
>  <cpd_smiles>
CCOc1ccc2c(c1)/C(=C(\C(Cl)=C(Cl)Cl)[N+](=O)[O-])N2

>  <GI50>
> 100 µM (inactive)

$$$$
>  <cpd_smiles>
Nc1n[n+](CC(=O)c2ccccc2)c2sc(-c3ccccc3)nn12

>  <GI50>
> 100 µM (inactive)

$$$$
>  <cpd_smiles>
O=NN1CCCS1(=O)=O

>  <GI50>
> 100 µM (inactive)

$$$$

Enquiry: I am curious: what GI50 value has been reported for `N#Cc1c(-c2ccccc2)[nH]c2ccc(Cl)cc2c1=O` ?
Return: 34.8 µM (inactive)
